Target: human recombinant mGluR5 (Homo sapiens, UniProt P41594)
Construct: expressed in transfected cells; host or cells: HEK 293
Sequence (P41594 21-1212): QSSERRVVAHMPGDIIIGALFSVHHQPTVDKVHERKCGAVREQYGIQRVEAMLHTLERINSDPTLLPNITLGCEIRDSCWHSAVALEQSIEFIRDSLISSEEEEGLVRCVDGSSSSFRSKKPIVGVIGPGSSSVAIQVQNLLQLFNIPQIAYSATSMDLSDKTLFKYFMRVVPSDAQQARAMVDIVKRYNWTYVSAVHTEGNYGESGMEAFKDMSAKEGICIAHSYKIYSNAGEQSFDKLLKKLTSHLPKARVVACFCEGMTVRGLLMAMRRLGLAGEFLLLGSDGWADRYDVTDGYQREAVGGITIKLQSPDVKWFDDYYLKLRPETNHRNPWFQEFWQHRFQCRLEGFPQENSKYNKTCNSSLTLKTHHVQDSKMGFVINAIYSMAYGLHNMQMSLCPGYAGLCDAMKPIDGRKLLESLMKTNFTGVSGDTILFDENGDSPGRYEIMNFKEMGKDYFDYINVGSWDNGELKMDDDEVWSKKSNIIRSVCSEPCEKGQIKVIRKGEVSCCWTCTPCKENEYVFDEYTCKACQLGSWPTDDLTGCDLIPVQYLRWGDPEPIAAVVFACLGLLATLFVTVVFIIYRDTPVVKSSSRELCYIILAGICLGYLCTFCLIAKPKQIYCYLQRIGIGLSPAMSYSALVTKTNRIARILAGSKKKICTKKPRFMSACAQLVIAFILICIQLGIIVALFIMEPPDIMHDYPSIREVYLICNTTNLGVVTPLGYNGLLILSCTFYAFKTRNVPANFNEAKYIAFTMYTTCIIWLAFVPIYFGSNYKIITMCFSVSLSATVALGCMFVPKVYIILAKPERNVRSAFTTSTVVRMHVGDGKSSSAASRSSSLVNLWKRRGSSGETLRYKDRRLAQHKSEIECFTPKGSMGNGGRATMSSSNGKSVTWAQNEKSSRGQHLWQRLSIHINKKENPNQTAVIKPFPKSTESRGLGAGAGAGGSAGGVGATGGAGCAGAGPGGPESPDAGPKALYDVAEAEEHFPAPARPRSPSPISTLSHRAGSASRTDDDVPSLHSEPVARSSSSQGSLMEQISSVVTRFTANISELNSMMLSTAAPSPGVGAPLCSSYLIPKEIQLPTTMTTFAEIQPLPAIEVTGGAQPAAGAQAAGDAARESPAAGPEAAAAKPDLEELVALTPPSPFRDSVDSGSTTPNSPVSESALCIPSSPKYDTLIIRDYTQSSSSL
Assay: positive modulation of mGluR5, calcium based FLIPR assay
Details: HEK 293 cell line expressing human recombinant mGluR5; EC50 of the modulation from peak Ca fluorescence signal after glutamate at approx. 5% basal stimulation
pEC50: −log10 of the molar value.
MEASUREMENT_NAME: pEC50

COCCCc1cc(-c2ccc(F)c(C)c2)nn1CC(=O)N1CCc2nc(C)sc2CC1 [Example 7.02.103] :: 7.47

(I) CCc1cc(-c2cccc(C#N)c2)nn1CC(=O)N1CCc2nc(N)sc2CC1 [Example 7.02.185]
(II) CCc1cc(-c2ccc(F)c(C)c2)nn1CC(=O)N1CCc2oc(C)nc2C1 [Example 7.01.075]
Hey, which is lower on measured pEC50, I or II ? Write down the label of the entry you select. I
